// values below are reported mAb Binding Response (nm)
- Experimental target: T1, human ANGPTL8 expressed with C-terminal mouse IgG2a Fc tag (hANGPTL8-mFc; SEQ ID NO: 340) (human)
- T1 construct: also called Angiopoietin-like protein 8
- T1 chain: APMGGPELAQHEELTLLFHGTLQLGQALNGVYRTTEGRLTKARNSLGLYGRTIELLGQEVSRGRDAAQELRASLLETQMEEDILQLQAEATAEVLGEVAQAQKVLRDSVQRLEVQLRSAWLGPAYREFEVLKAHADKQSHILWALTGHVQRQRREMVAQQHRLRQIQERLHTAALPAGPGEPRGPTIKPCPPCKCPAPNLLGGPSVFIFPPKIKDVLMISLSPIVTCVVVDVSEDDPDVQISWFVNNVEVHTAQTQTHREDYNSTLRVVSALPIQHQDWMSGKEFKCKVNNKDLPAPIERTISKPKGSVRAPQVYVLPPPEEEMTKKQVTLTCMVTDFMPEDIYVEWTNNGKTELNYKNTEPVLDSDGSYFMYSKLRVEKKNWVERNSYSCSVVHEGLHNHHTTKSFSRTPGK
- Protocol description: BLI Octet, captured antigen, 100 nM mAb, 25C

# Binder, mAb Binding Response (nm)
measured = [
    ("H4H15318P (antibody, human IgG4, V domains shown, H4H prefix: human IgG4 Fc) VH: QVQLVESGGGVVQPGRSLRLSCTASGFTFGNFGIHWVRQAPGKGLEWVAVISYDGTDKFYADPVKGRFIISRDNSMNILYLQMNSLRAEDTAVYYCAKDGEMELRGYYYYYGMDVWGQGTTVTVSS VL: DIQMTQSPSSVSASVGDRVTITCRASQGINTWLAWYQQKPGTAPKLLIFAASSLESGVPSRFSGSGFGTDFTLTISSLQSEDLATYFCQQVHSPPYTFGQGTKLEIK", 0.19),
    ("H4H15334P (antibody, human IgG4, V domains shown, H4H prefix: human IgG4 Fc) VH: QVQLQESGPGLVKPSQTLSLTCTVSGGSINSGGYYWNWIRQHPGKGLEWIGYIYYSGSTYFNPSLKSRVTISIDTSKNQFSLKLSSVTAADTAVYYCAREGIYAFDYWGQGTLVTVSS VL: DIQMTQSPSSLSASVGDRVTITCRASQGIRNDLGWYQQKPGKAPKRLIYSASSLQSGVPSRFGGSGSGTEFTLTISSLQPEDFATYYCLQHNSYPWTFGQGTKVEIK", 0.05),
    ("H4H15330P (antibody, human IgG4, V domains shown, H4H prefix: human IgG4 Fc) VH: QVQLVESGGGLVKPGGSLRLSCAASGFTFSDYYMSWIRQAPGKGLEWISHISGSGRTTHYADSMKGRFTISRDNAKNSLYLQMNSLRAEDTAVYYCVREGGFNWNYEGTFDIWGQGTMVTVSS VL: DIVMTQTPLSSPVTLGQPASISCRSSQSLLHSDQNTYLSWLHQRPGQPPRLLIYKISNRFSGVPDRFSGSGAGTDFTLKISRVEAEDVGIYYCMQGTQFPLTFGGGTKVEIK", 0.34),
]
